tested on: U251 CNS
Outcomes: 1 for active, -1 for inactive

{"columns": ["Compound", "Assigned class"],
 "data": [
  ["OCCCCC#Cc1ccccc1C#Cc1ccccn1", -1],
  ["COc1cccc(C2=C(c3cn(C)c4ccc(Cl)cc34)C(=O)NC2=O)c1", -1],
  ["COc1cc(-c2nccn2-c2ccc3ccccc3c2)cc(OC)c1OC", 1],
  ["c1cc[n+](C2c3ccccc3C([n+]3ccccc3)c3ccccc32)cc1 (centres undefined)", -1],
  ["CCCC[C@H](NC(=O)[C@H]1CCCCN1C)C(=O)N(C)[C@H](C[C@@H](OC(C)=O)c1nc(C(=O)N[C@@H](Cc2ccccc2)C[C@H](C)C(=O)OCC)cs1)C(C)C", 1],
  ["O=C1/C(=C/c2ccccc2)CN(C(=O)CCN2CCC(=NO)CC2)C/C1=C\\c1ccccc1", -1],
  ["CCCCC(CCCCCC(CCCC)C1NC(C)Cc2cc(OC)c(OC)cc21)C1NC(C)Cc2cc(OC)c(OC)cc21 (centres undefined)", -1],
  ["ClCc1ccccc1Cn1cnc2c(Cl)nc(Cl)nc21", 1],
  ["C=CCN1C(=O)c2cccc3c(N4CCOCC4)ccc(c23)C1=O", 1]
]}
